# Lookup of reported Proliferation EC50 keyed by entry
Target: T1, human GITR (human, UniProt Q9Y5U5 26-241)
T1 sequence: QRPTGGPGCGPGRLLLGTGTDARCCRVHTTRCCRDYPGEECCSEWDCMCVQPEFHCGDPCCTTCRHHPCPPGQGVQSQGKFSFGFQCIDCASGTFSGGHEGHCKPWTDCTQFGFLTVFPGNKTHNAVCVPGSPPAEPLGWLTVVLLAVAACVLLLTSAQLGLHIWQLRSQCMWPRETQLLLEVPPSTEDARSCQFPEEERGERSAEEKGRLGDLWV
Test: cell-based or functional assay
Respond numerically; units are µg/mL and should not be typed.

Binder	Proliferation EC50, µg/mL
41G5 (antibody, human IgG1, kappa, V domains shown, Parental fully human antibody; also called Ab7; SS-12428) VH: QVQLVESGGGVVQPGRSLRLSCAASGFTFSSYGMHWVRQAPGKGLEWVAVIWYPGSNKYYADSVKGRFTISRDNSKNTLYLQMNSLRAEDTAVYYCARGGELGRYYYYGMDVWGQGTTVTVSS VL: DIQMTQSPSSLSASVGDRVTVTCRASQGIRNDLGWYQQKPGKAPKRLIYAASSLQSGVPSRFSGSGSGTEFTLTISSLQPEDFATYYCLQHNNYPWTFGQGTKVDIKR	0.004

Prompt: Query (binder): 5H7v1 (antibody, human IgG1, kappa, V domains shown) VH: QVQLQESGPGLVKPSETLSLTCTVSGGSISSGGYFWSWIRQPPGKGLEWIGYIYYSGTTYYNPSLKSRVTISIDTSKNQFSLKLSSVTAADTAVYYCARDLFYYESSGPRGFDPWGQGTLVTVSS VL: EIVLTQSPGTLSLSPGERATLSCRASQTVSSNYLAWYQQKPGQAPRLLIYGSSTRATGIPDRFSGSGSGTDFTLTISRLEPEDFAVYYCQQYDSSPWTFGQGTKVEIKR ; field requested: Proliferation EC50
Completion: 0.033
